Sourced from patent US20050261472A1

Molecular target: DD(E) (Homo sapiens, UniProt P02671+P02675+P02679)
Construct: host or cells: purchased fibrinogen clotted with thrombin, digested with plasmin, then purified by ammonium sulfate cuts and Sephacryl S200
Experiment: dissociation constant against fibrin-derived polypeptide DD(E)
Type: binding
Conditions: read-out: Kd DD(E)
Bridge positions count the residues as written; N and C are the ends. Peptide text beside a SMILES is read from it.
MEASURED_METRIC: Kd
In your response, put the unit directly after the numeric value.

Solved cases (2 shown):
# COMPOUND, Kd
measured = [
    ("CC[C@H](C)[C@H](NC(=O)[C@H](Cc1c[nH]c2ccccc12)NC(=O)[C@@H]1CSSC[C@H](NC(=O)[C@H](CCC(=O)O)NC(=O)[C@@H](N)Cc2c[nH]c3ccccc23)C(=O)N2CCC[C@H]2C(=O)N[C@@H](Cc2ccc(O)cc2)C(=O)NCC(=O)N[C@@H](CC(C)C)C(=O)N1)C(=O)N[C@@H](CCC(N)=O)C(N)=O [SEQ ID NO: 61, WECPYGLCWIQ] (H-WECPYGLCWIQ-NH2; disulfide 3-8)", "940 nM"),
    ("CC(C)C[C@H](NC(=O)[C@@H]1CSSC[C@H](NC(=O)[C@@H]2CCCN2C(=O)[C@H](CC(C)C)NC(=O)C[C@@H](C(=O)O)N(CCN(CC(=O)O)CC(=O)O)CCN(CC(=O)O)CC(=O)O)C(=O)N[C@@H](CC(=O)O)C(=O)N[C@@H](Cc2ccc(O)cc2)C(=O)N[C@@H](Cc2ccc(O)cc2)C(=O)NCC(=O)N[C@@H]([C@@H](C)O)C(=O)N1)C(=O)N[C@@H](CC(=O)O)C(N)=O", "2900 nM"),
]

Consider the additional compound presented here.
Item CC[C@H](C)[C@H](NC(=O)[C@H](Cc1c[nH]cn1)NC(=O)[C@@H]1CSSC[C@H](NC(=O)[C@H](Cc2c[nH]cn2)NC(=O)[C@@H](N)Cc2ccccc2)C(=O)N2CCC[C@H]2C(=O)N[C@@H](Cc2ccc(O)cc2)C(=O)N[C@@H](CC(=O)O)C(=O)N[C@@H](CC(C)C)C(=O)N1)C(N)=O [SEQ ID NO: 60, FHCPYDLCHI] (H-FHCPYDLCHI-NH2; disulfide 3-8; N-terminus and C-terminus assumed) has what recorded Kd?
2000 nM

----------
Target: DD(E) (Homo sapiens, UniProt P02671+P02675+P02679)
Construct: host or cells: purchased fibrinogen clotted with thrombin, digested with plasmin, then purified by ammonium sulfate cuts and Sephacryl S200
Test: dissociation constant against fibrin-derived polypeptide DD(E)
Format: binding
Conditions: sequences of phage isolates from TN10-9 and TN6-6 libraries (Table 5); read-out: Kd DD(E)
Reported pKd values for the following sequences.
Reminder that pKd means the negative base-10 logarithm of the concentration expressed in mol/L.

# RECORD_SEQUENCE, MEASURED_METRIC, VAL
measured = [
    ("NHGCYNSYGVPYCDYS [compound 18]", "pKd", 5.57),
    ("QWECPYGLCWIQ [compound 22]", "pKd", 6.13),
]

Consider the additional sequence presented here.
What is its pKd for DD(E) (Homo sapiens, UniProt P02671+P02675+P02679)? Entry: WFHCPYDLCHIL [compound 21]
5.85

----------
Target: DD(E) (Homo sapiens, UniProt P02671+P02675+P02679)
Construct: host or cells: purchased fibrinogen clotted with thrombin, digested with plasmin, then purified by ammonium sulfate cuts and Sephacryl S200
Assay: dissociation constant against fibrin-derived polypeptide DD(E)
Type: binding
Conditions: cyclic peptides of Table 12; unit inferred; read-out: Kd against DD(E)
MEASURED_METRIC: pKd
Reminder that pKd means the negative base-10 logarithm of the concentration expressed in mol/L.

Item side-chain-to-side-chain cyclic peptide bearing a central Tyr-Tyr-Gly-Thr moiety [(III)] has what recorded pKd?
3.75
